- assay_target: PoxCxrA17-150 (Penicillium oxalicum HP7-1) (UniProt A0A2H4WV05)
- Sequence: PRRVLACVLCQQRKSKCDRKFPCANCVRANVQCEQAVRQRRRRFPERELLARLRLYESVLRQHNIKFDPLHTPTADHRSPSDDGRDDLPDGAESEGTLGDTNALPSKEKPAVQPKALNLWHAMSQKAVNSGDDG
- assay: EMSA
- condition_notes: EMSA: 20 mM Tris-HCl pH 8.0, 50 mM KCl, 0.1 mg/mL BSA, 5% glycerol, 1 mM DTT, 1 ug salmon sperm DNA, ~50 ng probe, 30 min at 30 C; footprinting at 30 C

>  <sequence_record>
GAGAGGCGAATTGCTTCAGGATCCACCCAAGGAAGCAACTATATAAGAAGAGGTGCCATCACCTCGACTCTGGTGTTCATCATCCATTCCTTCCTCATCTCCTCCACCACCCC (double strand) [PBM2 probe]

>  <assay_target>
PoxCxrA17-150 (Penicillium oxalicum HP7-1) (UniProt A0A2H4WV05)

>  <binding>
no binding

$$$$
>  <sequence_record>
AGGATCTGATGAAAGGGGGGTGGTGGAGGAGATGAGGAAGGAATGGATGATGAACACCAGAGTCGAGGTGATGGCACCTCTTCTTATATAGTTGCTTCCTTGGGTGGATCCTGAAGCAATTCGCCTCTC (double strand) [PBM_POX05587-6']

>  <assay_target>
PoxCxrA17-150 (Penicillium oxalicum HP7-1) (UniProt A0A2H4WV05)

>  <binding>
binds

$$$$
>  <sequence_record>
CCCCTTTCATCAGATCCTCAAAGAACAAAATTGATCATCATCTCTTTTGATCTTTGATCCAATCCATCACA (double strand) [PBM1 probe]

>  <assay_target>
PoxCxrA17-150 (Penicillium oxalicum HP7-1) (UniProt A0A2H4WV05)

>  <binding>
binds

$$$$
>  <sequence_record>
GGTGAGCAGCAAAAGAAGCAGAAGAGCACCGAACGATCAACGATCACGATCTGACGATGTGAAGAAAAAGAGGGTCAACGGGGAGACTAAGAGTGCGACGGCGGATAGTCAAGACGGAAGCGAACCTCCATAAAACACGATGGCCAGGAGGAAGGGAAAAAAAAAATTAAGGAGCCTTATCCACTTTCACGACTCTCCCCTCCCCGCAATTCCAGGGAAGCCGGTCTTGGTTGAATTGTTGGCCAACTGTTTTTCATTTGTTCGTCTCCT (double strand) [PoxClrB-270]

>  <assay_target>
PoxCxrA17-150 (Penicillium oxalicum HP7-1) (UniProt A0A2H4WV05)

>  <binding>
no binding

$$$$
